Each recorded value in this set is attributed to ChEMBL document CHEMBL4842370.

- Assay info: in vitro
- Condition context: mouse, liver microsomes
Recorded endpoint: metabolised at 2 h (%)

CCN(C)C(=O)Oc1cccc(CNCCNCCOc2cccc3c2ccn3S(=O)(=O)c2ccccc2)c1 | 40
O=S(=O)(c1ccccc1)n1ccc2c(OCCNCCNc3c4c(nc5ccccc35)CCCC4)cccc21 | 72

---

- Experimental target: Amyloid-beta precursor protein (Homo sapiens, UniProt P05067)
- Sequence (P05067 whole entry): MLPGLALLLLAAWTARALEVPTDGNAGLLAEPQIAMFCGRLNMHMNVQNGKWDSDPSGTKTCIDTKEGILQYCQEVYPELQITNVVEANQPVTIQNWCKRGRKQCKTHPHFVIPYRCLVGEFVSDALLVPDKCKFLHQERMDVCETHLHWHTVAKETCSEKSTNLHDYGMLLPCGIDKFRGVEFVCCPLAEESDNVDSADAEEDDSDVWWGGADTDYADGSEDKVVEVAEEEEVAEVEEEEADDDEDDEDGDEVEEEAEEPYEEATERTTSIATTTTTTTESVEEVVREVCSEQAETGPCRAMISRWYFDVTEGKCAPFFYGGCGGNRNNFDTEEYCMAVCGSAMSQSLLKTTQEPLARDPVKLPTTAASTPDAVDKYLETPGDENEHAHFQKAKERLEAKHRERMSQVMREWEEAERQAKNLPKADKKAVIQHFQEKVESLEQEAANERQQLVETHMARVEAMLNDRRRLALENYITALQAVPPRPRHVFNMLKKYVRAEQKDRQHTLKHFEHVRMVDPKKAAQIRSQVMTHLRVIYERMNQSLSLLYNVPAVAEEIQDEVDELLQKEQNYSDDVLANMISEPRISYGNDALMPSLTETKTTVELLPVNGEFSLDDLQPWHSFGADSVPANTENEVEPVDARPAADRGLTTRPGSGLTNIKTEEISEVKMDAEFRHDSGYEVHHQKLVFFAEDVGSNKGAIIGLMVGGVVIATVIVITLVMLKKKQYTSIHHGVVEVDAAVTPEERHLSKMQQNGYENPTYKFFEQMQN
- Assay info: Inhibition of HFIP-pretreated human recombinant amyloid beta (1 to 42) self aggregation at 10 uM incubated up to 48 hrs under shaking condition and measured every 3 min by Thioflavin T based fluorescence assay relative to control
Recorded endpoint: inhibition

O=S(=O)(c1ccccc1)n1ccc2c(OCCNCCCNCc3ccccc3)cccc21 | 53.2%
O=S(=O)(c1ccccc1)n1ccc2c(OCCNCCNc3c4c(nc5ccccc35)CCCC4)cccc21 | 74.8%
O=S(=O)(c1ccccc1)n1ccc2c(OCCNCCNCc3cccc(Cl)c3)cccc21 | 64.3%
CCN(C)C(=O)Oc1cccc(CNCCNCCOc2cccc3c2ccn3S(=O)(=O)c2ccccc2)c1 | 68.1%
O=S(=O)(c1ccccc1)n1ccc2c(OCCNCCNCc3ccccc3)cccc21 | 55%
O=S(=O)(c1ccccc1)n1ccc2c(OCCNCCCCCCNc3c4c(nc5ccccc35)CCCC4)cccc21 | 69.2%
CCN(C)C(=O)Oc1cccc([C@H](C)N(C)C)c1 | 86.6%
Cc1cccc(CNCCNCCOc2cccc3c2ccn3S(=O)(=O)c2ccccc2)c1 | 57.4%
O=S(=O)(c1ccccc1)n1ccc2c(OCCNCCCCNCc3ccccc3)cccc21 | 41.8%
O=S(=O)(c1ccccc1)n1ccc2c(OCCNCCCCNc3c4c(nc5ccccc35)CCCC4)cccc21 | 77.4%
